# experimental_conditions: in 1,4-dioxane, 328.15 K
measurement_name: solubility (mole fraction)
Would you mind answering with just the numeric figure?

# solubility (mole fraction) of COC(=O)Nc1nc2ccc(Sc3ccccc3)cc2[nH]1 = 0.00326

* * *

# experimental_conditions: in 1,4-dioxane, 313.15 K
measurement_name: solubility (mole fraction)
Would you mind answering with just the numeric figure?

# solubility (mole fraction) of COC(=O)Nc1nc2ccc(Sc3ccccc3)cc2[nH]1 = 0.00222

* * *

# experimental_conditions: in NMP, 313.15 K
measurement_name: solubility (mole fraction)
Would you mind answering with just the numeric figure?

# solubility (mole fraction) of COC(=O)Nc1nc2ccc(Sc3ccccc3)cc2[nH]1 = 0.0651

* * *

# experimental_conditions: in NMP, 303.15 K
measurement_name: solubility (mole fraction)
Would you mind answering with just the numeric figure?

# solubility (mole fraction) of COC(=O)Nc1nc2ccc(Sc3ccccc3)cc2[nH]1 = 0.0537

* * *

# experimental_conditions: in acetone, 323.15 K
measurement_name: solubility (mole fraction)

# solubility (mole fraction) of COC(=O)Nc1nc2ccc(Sc3ccccc3)cc2[nH]1 = 0.00033

* * *

# experimental_conditions: in NMP, 308.15 K
measurement_name: solubility (mole fraction)
Would you mind answering with just the numeric figure?

# solubility (mole fraction) of COC(=O)Nc1nc2ccc(Sc3ccccc3)cc2[nH]1 = 0.059

* * *

# experimental_conditions: in NMP, 298.15 K
measurement_name: solubility (mole fraction)
Would you mind answering with just the numeric figure?

# solubility (mole fraction) of COC(=O)Nc1nc2ccc(Sc3ccccc3)cc2[nH]1 = 0.0485

* * *

# experimental_conditions: in NMP, 293.15 K
measurement_name: solubility (mole fraction)
Would you mind answering with just the numeric figure?

# solubility (mole fraction) of COC(=O)Nc1nc2ccc(Sc3ccccc3)cc2[nH]1 = 0.0435

* * *

# experimental_conditions: in water, 323.15 K
measurement_name: solubility (mole fraction)
Would you mind answering with just the numeric figure?

# solubility (mole fraction) of COC(=O)Nc1nc2ccc(Sc3ccccc3)cc2[nH]1 = 2.14e-05

* * *

# experimental_conditions: in water, 298.15 K
measurement_name: solubility (mole fraction)
Would you mind answering with just the numeric figure?

# solubility (mole fraction) of COC(=O)Nc1nc2ccc(Sc3ccccc3)cc2[nH]1 = 7.12e-06

* * *

# experimental_conditions: in 1,4-dioxane, 298.15 K
measurement_name: solubility (mole fraction)
Would you mind answering with just the numeric figure?

# solubility (mole fraction) of COC(=O)Nc1nc2ccc(Sc3ccccc3)cc2[nH]1 = 0.00148

* * *

# experimental_conditions: in NMP, 323.15 K
measurement_name: solubility (mole fraction)
Would you mind answering with just the numeric figure?

# solubility (mole fraction) of COC(=O)Nc1nc2ccc(Sc3ccccc3)cc2[nH]1 = 0.0773

* * *

# experimental_conditions: in acetone, 288.15 K
measurement_name: solubility (mole fraction)
Would you mind answering with just the numeric figure?

# solubility (mole fraction) of COC(=O)Nc1nc2ccc(Sc3ccccc3)cc2[nH]1 = 0.000192

* * *

# experimental_conditions: in acetone, 313.15 K
measurement_name: solubility (mole fraction)
Would you mind answering with just the numeric figure?

# solubility (mole fraction) of COC(=O)Nc1nc2ccc(Sc3ccccc3)cc2[nH]1 = 0.000287

* * *

# experimental_conditions: in acetone, 298.15 K
measurement_name: solubility (mole fraction)
Would you mind answering with just the numeric figure?

# solubility (mole fraction) of COC(=O)Nc1nc2ccc(Sc3ccccc3)cc2[nH]1 = 0.000228

* * *

# experimental_conditions: in water, 318.15 K
measurement_name: solubility (mole fraction)

# solubility (mole fraction) of COC(=O)Nc1nc2ccc(Sc3ccccc3)cc2[nH]1 = 1.77e-05

* * *

# experimental_conditions: in 1,4-dioxane, 288.15 K
measurement_name: solubility (mole fraction)
Would you mind answering with just the numeric figure?

# solubility (mole fraction) of COC(=O)Nc1nc2ccc(Sc3ccccc3)cc2[nH]1 = 0.00107

* * *

# experimental_conditions: in 1,4-dioxane, 293.15 K
measurement_name: solubility (mole fraction)
Would you mind answering with just the numeric figure?

# solubility (mole fraction) of COC(=O)Nc1nc2ccc(Sc3ccccc3)cc2[nH]1 = 0.00124

* * *

# experimental_conditions: in acetone, 328.15 K
measurement_name: solubility (mole fraction)
Would you mind answering with just the numeric figure?

# solubility (mole fraction) of COC(=O)Nc1nc2ccc(Sc3ccccc3)cc2[nH]1 = 0.000353

* * *

# experimental_conditions: in acetone, 308.15 K
measurement_name: solubility (mole fraction)
Would you mind answering with just the numeric figure?

# solubility (mole fraction) of COC(=O)Nc1nc2ccc(Sc3ccccc3)cc2[nH]1 = 0.000265

* * *

# experimental_conditions: in 1,4-dioxane, 318.15 K
measurement_name: solubility (mole fraction)

# solubility (mole fraction) of COC(=O)Nc1nc2ccc(Sc3ccccc3)cc2[nH]1 = 0.00256

* * *

# experimental_conditions: in water, 328.15 K
measurement_name: solubility (mole fraction)
Would you mind answering with just the numeric figure?

# solubility (mole fraction) of COC(=O)Nc1nc2ccc(Sc3ccccc3)cc2[nH]1 = 2.63e-05

* * *

# experimental_conditions: in acetone, 293.15 K
measurement_name: solubility (mole fraction)
Would you mind answering with just the numeric figure?

# solubility (mole fraction) of COC(=O)Nc1nc2ccc(Sc3ccccc3)cc2[nH]1 = 0.000211

* * *

# experimental_conditions: in water, 308.15 K
measurement_name: solubility (mole fraction)
Would you mind answering with just the numeric figure?

# solubility (mole fraction) of COC(=O)Nc1nc2ccc(Sc3ccccc3)cc2[nH]1 = 1.15e-05

* * *

# experimental_conditions: in acetone, 303.15 K
measurement_name: solubility (mole fraction)
Would you mind answering with just the numeric figure?

# solubility (mole fraction) of COC(=O)Nc1nc2ccc(Sc3ccccc3)cc2[nH]1 = 0.000246

* * *

# experimental_conditions: in water, 313.15 K
measurement_name: solubility (mole fraction)
Would you mind answering with just the numeric figure?

# solubility (mole fraction) of COC(=O)Nc1nc2ccc(Sc3ccccc3)cc2[nH]1 = 1.43e-05

* * *

# experimental_conditions: in water, 293.15 K
measurement_name: solubility (mole fraction)
Would you mind answering with just the numeric figure?

# solubility (mole fraction) of COC(=O)Nc1nc2ccc(Sc3ccccc3)cc2[nH]1 = 5.61e-06
